molecular target: GABA B receptor (Rattus norvegicus, UniProt O88871+Q9Z0U4); assay: In vitro binding affinity against Gamma-aminobutyric acid type B receptor in rat brain synaptic membranes at pH 7.4
Sequence (Q9Z0U4 whole entry): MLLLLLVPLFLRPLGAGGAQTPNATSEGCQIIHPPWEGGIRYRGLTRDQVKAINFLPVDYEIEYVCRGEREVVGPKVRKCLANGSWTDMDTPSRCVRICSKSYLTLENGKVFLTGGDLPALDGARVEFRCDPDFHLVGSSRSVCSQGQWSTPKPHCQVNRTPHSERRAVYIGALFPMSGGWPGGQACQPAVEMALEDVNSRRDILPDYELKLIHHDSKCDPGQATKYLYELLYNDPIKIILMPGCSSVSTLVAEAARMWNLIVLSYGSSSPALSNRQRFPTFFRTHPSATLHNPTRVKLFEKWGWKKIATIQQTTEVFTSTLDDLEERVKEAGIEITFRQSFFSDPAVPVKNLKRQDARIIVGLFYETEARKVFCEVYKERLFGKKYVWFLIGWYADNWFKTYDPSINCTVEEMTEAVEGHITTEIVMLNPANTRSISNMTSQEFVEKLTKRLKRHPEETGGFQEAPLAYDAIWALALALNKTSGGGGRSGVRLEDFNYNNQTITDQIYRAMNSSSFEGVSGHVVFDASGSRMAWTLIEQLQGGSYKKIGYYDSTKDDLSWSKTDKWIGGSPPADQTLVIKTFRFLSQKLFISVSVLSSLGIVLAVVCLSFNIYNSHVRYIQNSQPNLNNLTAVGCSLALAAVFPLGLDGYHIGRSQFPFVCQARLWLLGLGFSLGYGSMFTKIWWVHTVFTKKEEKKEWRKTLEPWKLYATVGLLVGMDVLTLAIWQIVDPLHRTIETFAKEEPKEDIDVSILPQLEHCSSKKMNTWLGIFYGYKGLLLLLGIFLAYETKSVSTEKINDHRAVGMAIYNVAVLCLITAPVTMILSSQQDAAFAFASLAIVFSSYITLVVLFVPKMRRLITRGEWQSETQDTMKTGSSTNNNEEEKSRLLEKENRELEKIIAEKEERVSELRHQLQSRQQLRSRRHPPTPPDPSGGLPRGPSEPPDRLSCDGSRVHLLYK
Sequence (O88871 whole entry): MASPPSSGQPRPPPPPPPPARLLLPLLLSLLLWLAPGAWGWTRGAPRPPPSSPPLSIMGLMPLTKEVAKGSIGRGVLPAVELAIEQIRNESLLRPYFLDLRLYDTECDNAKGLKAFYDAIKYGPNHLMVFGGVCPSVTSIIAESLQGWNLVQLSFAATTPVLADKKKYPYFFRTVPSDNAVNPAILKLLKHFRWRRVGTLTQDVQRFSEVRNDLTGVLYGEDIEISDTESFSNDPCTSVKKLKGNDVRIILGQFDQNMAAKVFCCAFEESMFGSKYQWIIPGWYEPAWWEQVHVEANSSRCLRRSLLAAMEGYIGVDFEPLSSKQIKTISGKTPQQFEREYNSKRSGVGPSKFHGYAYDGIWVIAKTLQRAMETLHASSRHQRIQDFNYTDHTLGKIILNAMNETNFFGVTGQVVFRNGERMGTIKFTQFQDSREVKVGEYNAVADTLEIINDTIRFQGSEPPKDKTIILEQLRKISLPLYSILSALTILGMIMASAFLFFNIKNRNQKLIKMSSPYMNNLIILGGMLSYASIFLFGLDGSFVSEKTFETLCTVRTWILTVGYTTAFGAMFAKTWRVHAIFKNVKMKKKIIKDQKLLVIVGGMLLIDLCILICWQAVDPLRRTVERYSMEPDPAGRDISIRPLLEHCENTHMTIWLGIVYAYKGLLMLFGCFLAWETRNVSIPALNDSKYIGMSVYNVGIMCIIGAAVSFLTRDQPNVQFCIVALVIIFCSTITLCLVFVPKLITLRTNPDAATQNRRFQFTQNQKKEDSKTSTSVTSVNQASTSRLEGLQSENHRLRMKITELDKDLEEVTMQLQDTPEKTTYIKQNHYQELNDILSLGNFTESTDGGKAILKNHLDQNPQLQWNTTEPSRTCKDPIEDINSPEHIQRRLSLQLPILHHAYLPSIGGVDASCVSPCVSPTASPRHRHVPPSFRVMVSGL
Item-by-item account of pIC50
Expect pIC50 as a plain number equal to -log10 of the molar concentration.

[[record]]
compound = "O=C(O)C[C@@H]1CCNC1"
readout = "pIC50"
quantitative_readout = 5.11


Next item in the queue.
Look up pIC50 for this compound: O=C(O)CC1CCNC1 (racemic)
4.85
